Quick record of IC50 values for Human Factor XIIa (Homo sapiens).

Below, each entry is followed by its recorded IC50 result.
# COMPOUND, REPORTED
records = [
    ("CC(C)c1cc(OCC23CCOC(CNc4cccc5c(N)nccc45)(C2)C3)ncn1", "1000 to 3000 nM"),
    ("CC1(C)OC2(CNc3cccc4c(N)nccc34)CC1(COc1ccc3nccn3c1)C2", "100 to 300 nM"),
    ("Cn1ccc(OCC23CN(C(=O)CCc4cccc(Cl)c4)C(CNc4cccc5c(N)nccc45)(C2)C3)cc1=O", "10 to 100 nM"),
]

Let me check: Nc1nccc2c(N3CC4(CCC4OCc4ccn5ccnc5c4)C3)cccc12 (centres unmarked) [Example 9001] , system Human Factor XIIa (Homo sapiens), measured IC50 is 10000 to 40000 nM

The compound "Cn1ccc(OCC23CN(C(=O)OCc4ccc(F)c(F)c4)C(CNc4cccc5c(N)nccc45)(C2)C3)cc1=O" on Human Factor XIIa (Homo sapiens): IC50 was 100 to 300 nM

Reported Human Factor XIIa (Homo sapiens) IC50 for item "Nc1nccc2c(NCC34CC(CN5CCn6ccnc6C5)(C3)C4)cccc12" was 3000 to 10000 nM

Nc1nccc2c(N3CCC4(CC(COc5ccn6ccnc6c5)C4)C3)cccc12 (centres unmarked) tested on Human Factor XIIa (Homo sapiens) gave IC50: 300 to 1000 nM

Lab note: compound "Nc1nccc2c(NCC34CC(COc5ccn6ccnc6c5)(C3)C4)cccc12" tested on Human Factor XIIa (Homo sapiens); recorded IC50 was 100 to 300 nM

###

Below are molecules with their IC50 as measured on Trypsin (Homo sapiens, UniProt P07477).

Reported Trypsin (Homo sapiens, UniProt P07477) IC50 for item "Nc1nccc2c(NCC34CC(COc5ccc6c(c5)CNC6=O)(CO3)C4)cccc12" was 10 to 40 µM

The observed IC50 for Nc1nccc2c(NCC34CC(COC5CCn6ccnc6C5)(C3)C4)cccc12 (racemic) when tested with Trypsin (Homo sapiens, UniProt P07477) stands at 10 to 40 µM

Observed IC50, Trypsin (Homo sapiens, UniProt P07477), Nc1nccc2c(N3CCC4(CC(COc5ccn6ccnc6c5)C4)C3)cccc12 (single isomer, unassigned) : > 40 µM

Readout IC50 for "Cn1ccc(OCC23CN(C(=O)Nc4ccccc4)C(CNc4cccc5c(N)nccc45)(C2)C3)cc1=O" , test system Trypsin (Homo sapiens, UniProt P07477), was > 40 µM

For "Cn1ccc(OCC23CC(CNc4cccc5c(N)nccc45)(CCO2)C3)cc1=O" on Trypsin (Homo sapiens, UniProt P07477), measured IC50 was 10 to 40 µM

Entry "Cn1ccc(OCC23CN(C(=O)NCc4ccccc4)C(CNc4cccc5c(N)nccc45)(C2)C3)cc1=O" ; assay system Trypsin (Homo sapiens, UniProt P07477); IC50 recorded at > 40 µM

Assay Trypsin (Homo sapiens, UniProt P07477), sample "Cn1ccc(OCC23CN(CCCc4ccccc4)C(CNc4cccc5c(N)nccc45)(C2)C3)cc1=O" , IC50 read: > 40 µM

###

Target: Human Factor XIIa (Homo sapiens, UniProt P00748)
Sequence (P00748 373-615 limits assumed): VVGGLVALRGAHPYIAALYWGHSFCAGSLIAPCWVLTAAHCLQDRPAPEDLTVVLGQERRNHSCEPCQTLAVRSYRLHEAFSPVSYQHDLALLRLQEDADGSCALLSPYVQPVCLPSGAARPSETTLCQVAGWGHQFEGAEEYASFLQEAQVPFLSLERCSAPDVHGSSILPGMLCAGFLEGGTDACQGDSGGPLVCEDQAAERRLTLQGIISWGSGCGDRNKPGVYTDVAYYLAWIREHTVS
Sequence (P00748 20-372 partner limits assumed): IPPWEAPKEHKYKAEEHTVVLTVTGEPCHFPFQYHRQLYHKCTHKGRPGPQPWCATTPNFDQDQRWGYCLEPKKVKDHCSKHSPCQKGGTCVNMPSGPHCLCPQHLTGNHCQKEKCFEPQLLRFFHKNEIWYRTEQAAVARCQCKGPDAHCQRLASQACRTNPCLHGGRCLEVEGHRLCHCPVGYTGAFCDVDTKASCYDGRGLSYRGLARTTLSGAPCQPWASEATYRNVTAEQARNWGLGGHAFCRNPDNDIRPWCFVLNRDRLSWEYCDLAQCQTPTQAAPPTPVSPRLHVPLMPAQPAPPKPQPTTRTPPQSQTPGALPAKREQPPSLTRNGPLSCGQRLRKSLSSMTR
PROPERTY MEASURED: IC50

The measured IC50 associated with "Cn1ccc(OCC23CC(CNc4cccc5c(N)nccc45)(CO2)C3)cc1=O" reads 0.3 to 1 µM

###

The listing below reports IC50 for compounds tested on Thrombin (Homo sapiens).

# COMPOUND, IC50
records = [
    ("Nc1nccc2c(NCC34CC(COc5ccc6c(c5)C(=O)NC6)(C3)C4)cccc12 [Example 1109]", "10 to 40 µM"),
]

Hey, Thrombin (Homo sapiens) data for Nc1nccc2c(NCC34COC(COc5ccn6ccnc6c5)(C3)C4)cccc12 [Example 2020] : IC50 came out at > 40 µM

// assay Thrombin (Homo sapiens), entry Cc1cnc2ccc(OCC34CC(CNc5cccc6c(N)nccc56)(CO3)C4)cn12 [Example 2212] , IC50 value = > 40 µM

The measured IC50 that Nc1nccc2c(NCC34CC(COc5ccc6nc[nH]c6c5)(C3)C4)cccc12 [Example 1105] showed for Thrombin (Homo sapiens) is 10 to 40 µM

###

Target: Plasma Kallikrein (Homo sapiens, UniProt P03952)
Construct: FXIIa converts plasma prekallikrein (PK) to plasma kallikrein (PKa)
Sequence (P03952 391-638 limits assumed): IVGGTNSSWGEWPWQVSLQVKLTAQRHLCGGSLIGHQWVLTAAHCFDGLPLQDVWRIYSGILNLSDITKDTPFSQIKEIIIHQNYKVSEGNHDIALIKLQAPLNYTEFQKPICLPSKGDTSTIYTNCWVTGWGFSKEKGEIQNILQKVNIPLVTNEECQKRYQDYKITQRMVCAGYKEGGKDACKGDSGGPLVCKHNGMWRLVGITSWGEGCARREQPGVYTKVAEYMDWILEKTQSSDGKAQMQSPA
Sequence (P03952 20-390 partner limits assumed): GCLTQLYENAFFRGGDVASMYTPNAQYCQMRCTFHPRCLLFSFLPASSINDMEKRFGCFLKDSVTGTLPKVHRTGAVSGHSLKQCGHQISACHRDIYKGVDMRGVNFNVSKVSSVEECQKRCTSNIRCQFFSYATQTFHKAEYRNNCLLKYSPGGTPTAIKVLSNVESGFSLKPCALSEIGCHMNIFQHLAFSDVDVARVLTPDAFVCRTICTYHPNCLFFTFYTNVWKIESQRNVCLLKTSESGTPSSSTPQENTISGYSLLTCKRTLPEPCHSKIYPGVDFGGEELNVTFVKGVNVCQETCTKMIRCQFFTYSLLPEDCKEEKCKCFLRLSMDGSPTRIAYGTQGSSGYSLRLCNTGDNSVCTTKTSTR
Assay: Related protease inhibition: Plasma Kallikrein (fluorogenic substrate at Km)
Details: class symbols per Table 18, read-out: IC50 (human PKal)
PROPERTY MEASURED: IC50

Worked examples, 4 compounds total:
# COMPOUND, EXPERIMENTAL SYSTEM, REPORTED
records = [
    ("Cc1cc(OCC23COC(CNc4cccc5c(N)nccc45)(C2)C3)cn2ccnc12 [Example 6617]", "Plasma Kallikrein (Homo sapiens, UniProt P03952)", "> 40 µM"),
    ("Nc1nccc2c(NCC34CC(COc5ccc6nccn6c5)(CCO3)C4)cccc12 [Example 10904]", "Plasma Kallikrein (Homo sapiens, UniProt P03952)", "> 40 µM"),
    ("Nc1nccc2c(NCC34COC(COc5ccn6c(C(F)(F)F)nnc6c5)(C3)C4)cccc12 [Example 2206]", "Plasma Kallikrein (Homo sapiens, UniProt P03952)", "> 40 µM"),
    ("Nc1nccc2c(OCC34CC(C(=O)N5CCn6ccnc6C5)(C3)C4)cccc12 [Example 1015]", "Plasma Kallikrein (Homo sapiens, UniProt P03952)", "> 40 µM"),
]

So for c1cc2cc(NCC34CC(COc5ccn6ccnc6c5)(C3)C4)ccc2cn1 [Example 1011] , the logged IC50 turned out to be > 100 µM

IC50 reading for CC(=O)N1CC2(COc3ccn(C)c(=O)c3)CC1(CNc1cccc3c(N)nccc13)C2 [Example 12009] : > 4 µM

response.value for Nc1nccc2c(NCC34CC(COc5ccc6c(c5)C(=O)NC6)(C3)C4)cccc12 [Example 1109] (field: IC50) = > 40 µM

Lab note: measured IC50 of Nc1nccc2c(N3CCC4(CC(COc5ccn6ccnc6c5)C4)C3)cccc12 (single isomer, unassigned) [Example 8806] was > 40 µM

Form field IC50, entry Cc1cn2ccc(OCC34CC(CNc5cccc6c(N)nccc56)(C3)C4)cc2n1 [Example 1006] : > 40 µM

# IC50 (compound: CN1Cc2cc(OCC34COC(CNc5cccc6c(N)nccc56)(C3)C4)ccc2C1=O [Example 6621] ) is > 40 µM

The compound identified as Cn1ccc(OCC23COC(CNc4cccc5c(N)nccc45)(C2)C3)cc1=O [Example 6609] registered its IC50 at > 40 µM

Recorded result, Nc1nccc2c(N3CC4(CCC4OCc4ccn5ccnc5c4)C3)cccc12 (stereo not drawn) [Example 9001] , IC50: > 40 µM

Just so you know, measured IC50 for Nc1nccc2c(NCC34CC(COc5ccc6c(c5)NC(=O)C6)(C3)C4)cccc12 [Example 1113] came out at > 40 µM

Data point: CC(C)N1C[C@@H]2C[C@H]1CN2CC12CC(CNc3cccc4c(N)nccc34)(C1)C2 [Example 1005.1] ; IC50 = > 40 µM

Entry under test: CN1Cc2ccc(OCC34CC(CNc5cccc6c(N)nccc56)(CO3)C4)cc2C1=O [Example 2211] . Its IC50 was > 4 µM

###

Test: Pharmacokinetics after single intravenous and single oral dose in rats
Type: in vivo
Conditions: rat, plasma; half-life; male Sprague-Dawley rats, single iv (nominal 1 mg/kg) and single po (nominal 5 mg/kg) dose, Phoenix WinNonlin
PROPERTY MEASURED: half-life (h)

# COMPOUND, half-life / h
rows = [
    ("Cn1ccc(OCC23CN(C(=O)CCc4ccccc4)C(CNc4cccc5c(N)nccc45)(C2)C3)cc1=O", 1.08),
    ("Nc1nccc2c(NCC34CC(COC5CCn6ccnc6C5)(C3)C4)cccc12 (single isomer, unassigned)", 7.36),
    ("Nc1nccc2c(NCC34CC(COc5ccn6ccnc6c5)(CCO3)C4)cccc12", 11.9),
    ("Nc1nccc2c(NCC34CC(COc5ccn6ccnc6c5)(C3)C4)cccc12", 7.83),
    ("Cn1ccc(OCC23CCOC(CNc4cccc5c(N)nccc45)(C2)C3)cc1=O", 2.55),
    ("Cc1cnc2ccc(OCC34COC(CNc5cccc6c(N)nccc56)(C3)C4)cn12", 6.64),
    ("Nc1nccc2c(NCC34CC(COc5ccc6nccn6c5)(CO3)C4)cccc12", 5.7),
]

P = Cn1ccc(OCC23CN(C(=O)OCc4ccccc4)C(CNc4cccc5c(N)nccc45)(C2)C3)cc1=O
Q = Nc1nccc2c(NCC34COC(COc5ccn6ccnc6c5)(C3)C4)cccc12
R = Nc1nccc2c(NCC34COC(COc5ccc6nccn6c5)(C3)C4)cccc12
Ordering criterion: half-life; begin with the maximum. Answer by listing the labels in the order asked for.
Q, R, P
(Q: 10.5 h, R: 3.13 h, P: 1.14 h)

Reference source: patent US20240327412A1
